Entries annotated with measured Activity
# Tested on: Human immunodeficiency virus 1
# METHOD_DESCRIPTION: Antiviral activity against HIV1 NL4-3 infected human MT2 cells assessed as viral infection at 10 uM administered 30 mins before viral challenge by luciferase reporter gene activation assay relative to control
# Format: functional
Give your result in % as a bare value.

SMILES_REPR	READOUT_TYPE	REPORTED_VALUE
CC1(C)CC[C@]2(C(=O)O)CC[C@]3(C)C(=CC[C@@H]4[C@@]5(C)C[C@@H](O)[C@H](O)C(C)(C)[C@@H]5CC[C@]43C)[C@@H]2C1	Activity	56.3
C[C@H](NC(=O)[C@]12CCC(C)(C)C[C@H]1C1=CC[C@@H]3[C@@]4(C)C[C@@H](O)[C@H](O)C(C)(C)[C@@H]4CC[C@@]3(C)[C@]1(C)CC2)C(=O)O	Activity	124.2
COC(=O)CCCNC(=O)[C@]12CCC(C)(C)C[C@H]1C1=CC[C@@H]3[C@@]4(C)C[C@@H](O)[C@H](O)C(C)(C)[C@@H]4CC[C@@]3(C)[C@]1(C)CC2	Activity	32.5
CC1(C)CC[C@]2(C(=O)NCCCC(=O)NCC(=O)O)CC[C@]3(C)C(=CC[C@@H]4[C@@]5(C)C[C@@H](O)[C@H](O)C(C)(C)[C@@H]5CC[C@]43C)[C@@H]2C1	Activity	112.3
C[C@H](NC(=O)[C@]12CCC(C)(C)C[C@H]1C1=CC[C@@H]3[C@@]4(C)C[C@@H](O)[C@H](O)C(C)(C)[C@@H]4CC[C@@]3(C)[C@]1(C)CC2)C(=O)NCC(=O)O	Activity	134.5

// Input: CC(C)[C@H](NC(=O)CCCNC(=O)[C@]12CCC(C)(C)C[C@H]1C1=CC[C@@H]3[C@@]4(C)C[C@@H](O)[C@H](O)C(C)(C)[C@@H]4CC[C@@]3(C)[C@]1(C)CC2)C(=O)O . Output its Activity only.
66.2

// Input: C[C@H](NC(=O)CCCCCNC(=O)[C@]12CCC(C)(C)C[C@H]1C1=CC[C@@H]3[C@@]4(C)C[C@@H](O)[C@H](O)C(C)(C)[C@@H]4CC[C@@]3(C)[C@]1(C)CC2)C(=O)NCC(=O)O . Output its Activity only.
170.2

// Input: CC(C)[C@H](NC(=O)[C@]12CCC(C)(C)C[C@H]1C1=CC[C@@H]3[C@@]4(C)C[C@@H](O)[C@H](O)C(C)(C)[C@@H]4CC[C@@]3(C)[C@]1(C)CC2)C(=O)O . Output its Activity only.
102.8

// Input: CC1(C)CC[C@]2(C(=O)NCCCC(=O)O)CC[C@]3(C)C(=CC[C@@H]4[C@@]5(C)C[C@@H](O)[C@H](O)C(C)(C)[C@@H]5CC[C@]43C)[C@@H]2C1 . Output its Activity only.
126.4

// Input: COC(=O)[C@H](C)NC(=O)[C@]12CCC(C)(C)C[C@H]1C1=CC[C@@H]3[C@@]4(C)C[C@@H](O)[C@H](O)C(C)(C)[C@@H]4CC[C@@]3(C)[C@]1(C)CC2 . Output its Activity only.
63.6

----------
# System: Human immunodeficiency virus 1
# METHOD_DESCRIPTION: Antiviral activity against HIV1 NL4-3 infected human MT2 cells assessed as viral infection at 25 uM administered 30 mins before viral challenge by luciferase reporter gene activation assay relative to control
# Format: functional
Note to self: Activity under 80% means 1, ties and anything higher get 0.

Before answering, review these 5 worked examples.
SMILES_REPR	TEST_TARGET	LABEL
CC(C)[C@H](NC(=O)[C@]12CCC(C)(C)C[C@H]1C1=CC[C@@H]3[C@@]4(C)C[C@@H](O)[C@H](O)C(C)(C)[C@@H]4CC[C@@]3(C)[C@]1(C)CC2)C(=O)O	Human immunodeficiency virus 1	0
CC1(C)CC[C@]2(C(=O)NCCCC(=O)NCC(=O)O)CC[C@]3(C)C(=CC[C@@H]4[C@@]5(C)C[C@@H](O)[C@H](O)C(C)(C)[C@@H]5CC[C@]43C)[C@@H]2C1	Human immunodeficiency virus 1	0
COC(=O)CCCNC(=O)[C@]12CCC(C)(C)C[C@H]1C1=CC[C@@H]3[C@@]4(C)C[C@@H](O)[C@H](O)C(C)(C)[C@@H]4CC[C@@]3(C)[C@]1(C)CC2	Human immunodeficiency virus 1	1
COC(=O)[C@H](C)NC(=O)[C@]12CCC(C)(C)C[C@H]1C1=CC[C@@H]3[C@@]4(C)C[C@@H](O)[C@H](O)C(C)(C)[C@@H]4CC[C@@]3(C)[C@]1(C)CC2	Human immunodeficiency virus 1	1
CC(C)[C@H](NC(=O)CCCCCNC(=O)[C@]12CCC(C)(C)C[C@H]1C1=CC[C@@H]3[C@@]4(C)C[C@@H](O)[C@H](O)C(C)(C)[C@@H]4CC[C@@]3(C)[C@]1(C)CC2)C(=O)O	Human immunodeficiency virus 1	0

is_below(Activity, 80%) for C[C@H](NC(=O)CCCCCNC(=O)[C@]12CCC(C)(C)C[C@H]1C1=CC[C@@H]3[C@@]4(C)C[C@@H](O)[C@H](O)C(C)(C)[C@@H]4CC[C@@]3(C)[C@]1(C)CC2)C(=O)O ?
1

is_below(Activity, 80%) for C[C@H](NC(=O)CCCCCCCCCCNC(=O)[C@]12CCC(C)(C)C[C@H]1C1=CC[C@@H]3[C@@]4(C)C[C@@H](O)[C@H](O)C(C)(C)[C@@H]4CC[C@@]3(C)[C@]1(C)CC2)C(=O)O ?
1

is_below(Activity, 80%) for CC1(C)CC[C@]2(C(=O)NCCCCCC(=O)NCC(=O)O)CC[C@]3(C)C(=CC[C@@H]4[C@@]5(C)C[C@@H](O)[C@H](O)C(C)(C)[C@@H]5CC[C@]43C)[C@@H]2C1 ?
0

is_below(Activity, 80%) for CC1(C)CC[C@]2(C(=O)NCC(=O)O)CC[C@]3(C)C(=CC[C@@H]4[C@@]5(C)C[C@@H](O)[C@H](O)C(C)(C)[C@@H]5CC[C@]43C)[C@@H]2C1 ?
0

The values you see were collected from ChEMBL document CHEMBL1143374.
